pIC50 values for the compounds below.
experiment-summary: Inhibition of Trypanosoma cruzi trans-Sialidase
Give only the number. pIC50 is defined as minus log10 of concentration in molar units.

**Q:** Fill in the blank: the reported pIC50 of `Cc1ccc(S(=O)(=O)Nc2ccc(C(=O)/C=C/c3ccc(O)c(O)c3)cc2)cc1` is ____.
**A:** 6.05

**Q:** For the compound `O=c1c(O)c(-c2cc(O)c(O)c(O)c2)oc2cc(O)cc(O)c12` , what pIC50 is on record?
**A:** 6.24

**Q:** Can you look up the measured pIC50 of `Cc1ccc(S(=O)(=O)Nc2cccc(C(=O)/C=C/c3ccc(O)c(O)c3)c2)cc1` for me?
**A:** 5.60

Others:
**Q:** Can you look up the measured pIC50 of Cc1ccc(S(=O)(=O)N2c3ccccc3C(=O)C3=Cc4cc(O)c(O)c5c(O)c(O)cc(c45)C32)cc1 (centres undefined) for me?
**A:** 6.22

----------
Test system: Trypanosoma cruzi
experiment-summary: Inhibition of Trypanosoma cruzi N-terminus His-tagged trans-Sialidase using MuNANA as substrate at 1 mM after 10 mins by fluorometric analysis
Consider the following compounds and their measured inhibition readings.
Please state the figure in %; there is no need to write the unit.

**Q:** Look up inhibition for this compound: `CC(=O)N[C@H]1[C@H]([C@H](O)[C@H](O)CO)O[C@@](OCc2cn([C@H]3[C@@H](O)[C@H](O)O[C@H](CO)[C@@H]3O)nn2)(C(=O)O)C[C@@H]1O`
**A:** 69

**Q:** Value lookup for inhibition; key = CO[C@H]1O[C@H](CO)[C@H](O)[C@H](OCc2cn(C(C(=O)O)C(C)O)nn2)[C@H]1O (stereo not given in full)
**A:** 5

**Q:** // inhibition lookup, key: `CC(=O)N[C@H]1[C@H]([C@H](O)[C@H](O)CO)O[C@@](OCc2cn(C[C@H]3O[C@H](O)[C@H](O)[C@@H](O)[C@H]3O)nn2)(C(=O)O)C[C@@H]1O`
**A:** 91

**Q:** I am curious: what inhibition value has been reported for `CC(=O)N[C@H]1[C@H]([C@H](O)[C@H](O)CO)O[C@@](OCc2cn([C@@H]3[C@@H](O)[C@@H](O)O[C@H](CO)[C@H]3O)nn2)(C(=O)O)C[C@@H]1O` ?
**A:** 67

Please find the next compound below.
**Q:** Given the compound `CC(=O)N[C@H]1[C@H]([C@H](O)[C@H](O)CO)O[C@@](OCc2cn([C@@H]3O[C@H](CO)[C@H](O)[C@H](O)[C@H]3O)nn2)(C(=O)O)C[C@@H]1O` , what is its reported inhibition?
**A:** 88
